Test: in vivo
Settings: Bulb-C, mouse, in vivo, ip
measured.endpoint: LD50 at 3 weeks

[Q] State, in one line, measured LD50 at 3 weeks of CC(C)=CCC/C(C)=C/CC/C(C)=C/CSc1ccccc1C(=O)O
[A] > 100 mg/kg

* * *

In this section, each of the compounds is paired with its reported pKi.
Molecular target: prenylated protein methyltransferase (PPMTase) (Rattus norvegicus)
Construct: from tissue; host or cells: rat cerebellum, synaptosomal membranes
Test: Methylation of AFC by PPMTase in rat cerebellar synaptosomal membranes
Assay type: biochemical
Conditions: Table II, given as range; read-out: Ki
Text: As a substrate for methylation served AFC and as the donor of methyl served [methyl-H^3] labelled AdoMet. As a source of the enzyme prenylated protein methyltransferase (PPTMase) served rat cerebellar membranes which are known to be membranes enriched with this enzyme (Ben-Baruch, Biochem. Biophys. Res. Commun., 195, 282-288. (1993)). Charles River adult male rats were used for preparation of cerebellar synaptosomal membranes. […]
pKi: −log10 of the molar value.

Solved entries:
>>> value("CC(C)=CCC/C(C)=C/CC/C(C)=C/CSc1ccccc1C(=O)O [FTS]")
"5.38 to 5.82"
>>> value("CC(C)=CCC/C(C)=C/CC/C(C)=C/CSc1ccc(N)cc1C(=O)O [5-amino FTS]")
"4.09 to 4.18"
>>> value("CC(C)=CCC/C(C)=C/CC/C(C)=C/CNc1ccc(Cl)c(C(=O)O)c1 [NFCB, 2-chloro-5-farnesylaminobenzoic acid]")
"5.02 to 5.18"

// next entry
[Q] With prenylated protein methyltransferase (PPMTase) (Rattus norvegicus) as the test system, provide measured pKi for this compound: CC(C)=CCC/C(C)=C/CC/C(C)=C/CSCC(=O)O [FTA, S-trans, trans-farnesylthioacetic acid, reference compound]
[A] 4.98 to 5.24

* * *

The reader will find reported IC50 values listed item by item below.
Target: prenylated protein methyltransferase (PPMTase) (Rattus norvegicus, UniProt Q9WVM4)
Construct: from tissue; host or cells: rat cerebellum, synaptosomal membranes
Sequence (Q9WVM4 whole entry): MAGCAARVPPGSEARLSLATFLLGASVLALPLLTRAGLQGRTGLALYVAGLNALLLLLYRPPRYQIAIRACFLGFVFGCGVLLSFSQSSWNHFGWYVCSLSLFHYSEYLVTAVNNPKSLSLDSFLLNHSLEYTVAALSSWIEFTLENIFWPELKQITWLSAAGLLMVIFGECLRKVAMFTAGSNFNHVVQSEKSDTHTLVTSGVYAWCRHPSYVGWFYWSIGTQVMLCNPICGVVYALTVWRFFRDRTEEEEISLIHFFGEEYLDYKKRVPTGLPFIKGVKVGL
Experiment: Methylation of AFC by PPMTase in rat cerebellar synaptosomal membranes
Format: biochemical
Details: 100 μM AFC, synaptosomal membranes, FIG. 2; read-out: IC50 (concentration resulting in 50% inhibition of AFC methylation)
The reply should read as a number followed by its unit.

>>> value("CC(C)=CCC/C(C)=C/CC/C(C)=C/CSCC(=O)O [FTA, S-trans, trans-farnesylthioacetic acid, reference compound]")
"23 µM"

We now examine a further compound.
[Q] Quickly give me recorded IC50 for CC(C)=CCC/C(C)=C/CC/C(C)=C/CSc1ccccc1C(=O)O [FTS]
[A] 10 µM

# credit: patent USRE39682E1
